Where these numbers come from: ChEMBL document CHEMBL3045272

tested on: Blumeria graminis; experiment: Fungicidal activity against Blumeria graminis infected compound pre-treated wheat plants assessed as disease preventive activity at 1.5 ppm measured after 1 or 2 weeks; format: functional
As shown below, each of these compounds has a reported Activity value.
Field format: number, assumed %, no unit text.

CNC(=O)/C(=N/OC)c1ccccc1Oc1ccccc1 [METOMINOSTROBIN]    65
CN/C(=N\OCc1ccccc1/C(=N\OC)C(=O)OC)c1cc(C(F)(F)F)cc(C(F)(F)F)c1    70
CO/N=C(/C(=O)OC)c1ccccc1CO/N=C(\OC)c1cc(C(F)(F)F)cc(C(F)(F)F)c1    80
CO/C=C(/C(=O)OC)c1ccccc1CO/N=C(\OC)c1cc(C(F)(F)F)cc(C(F)(F)F)c1    98

Quick check: Activity of `COC(=O)N(OC)c1ccccc1CO/N=C(\OC)c1cc(C(F)(F)F)cc(C(F)(F)F)c1` ?
10

Same lookup for `CN/C(=N\OCc1ccccc1/C(=C\OC)C(=O)OC)c1cc(C(F)(F)F)cc(C(F)(F)F)c1` , please.
25

Same lookup for `CO/N=C(\C(=O)OC)c1ccccc1CO/N=C(\C)c1cccc(C(F)(F)F)c1` , please.
75

Same lookup for CO/C=C(/C(=O)OC)c1ccccc1Oc1cc(Oc2ccccc2C#N)ncn1 [AZOXYSTROBIN] , please.
62

Same lookup for `CO/C=C(/C(=O)OC)c1ccccc1CO/N=C(\SC)c1cc(C(F)(F)F)cc(C(F)(F)F)c1` , please.
75
